Data credit: paper PMC10698726

Molecular target: OCT3 (Homo sapiens)
Construct: expressed in transfected cells; host or cells: HEK293
Sequence (O75751 1-556): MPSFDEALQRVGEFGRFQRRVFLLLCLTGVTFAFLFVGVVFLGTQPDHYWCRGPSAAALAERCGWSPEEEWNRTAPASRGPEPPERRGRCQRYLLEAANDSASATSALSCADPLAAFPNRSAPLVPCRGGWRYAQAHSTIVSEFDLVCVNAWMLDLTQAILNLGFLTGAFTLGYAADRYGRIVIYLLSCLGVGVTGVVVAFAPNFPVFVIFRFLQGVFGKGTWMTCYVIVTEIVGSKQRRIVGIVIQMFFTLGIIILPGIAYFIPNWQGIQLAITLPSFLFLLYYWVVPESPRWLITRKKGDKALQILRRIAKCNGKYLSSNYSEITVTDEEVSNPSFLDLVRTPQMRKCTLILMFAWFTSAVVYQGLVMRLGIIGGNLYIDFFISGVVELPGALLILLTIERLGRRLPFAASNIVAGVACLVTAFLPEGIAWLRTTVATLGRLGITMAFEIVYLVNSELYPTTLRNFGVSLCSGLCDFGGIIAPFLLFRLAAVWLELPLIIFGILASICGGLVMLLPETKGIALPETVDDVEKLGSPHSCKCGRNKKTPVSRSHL
Assay: Inhibition of model substrate uptake in OCT3-overexpressing HEK293 cells
Assay type: cell-based
Conditions: HEK293, 5 min, read-out: (S)-Zolmitriptan inhibition [%]
1 means recorded inhibition at 20 µM is 40% or above; 0 means it is below 40%.

INSERT INTO assay_data (compound, target_or_system, label_class) VALUES
  ('Cc1ccc(O)c([C@H](CCN(C(C)C)C(C)C)c2ccccc2)c1 [(R)-Tolterodine]', 'OCT3 (Homo sapiens)', 1),
  ('CNCC[C@H](Oc1cccc2ccccc12)c1cccs1 [(S)-Duloxetine]', 'OCT3 (Homo sapiens)', 0),
  ('COc1ccc(CCN(C)CCC[C@](C#N)(c2ccc(OC)c(OC)c2)C(C)C)cc1OC [(R)-Verapamil]', 'OCT3 (Homo sapiens)', 1),
  ('CNCC[C@@H](Oc1ccc(C(F)(F)F)cc1)c1ccccc1 [(R)-Fluoxetine]', 'OCT3 (Homo sapiens)', 0),
  ('COc1ccc([C@H](CN(C)C)C2(O)CCCCC2)cc1 [(R)-Venlafaxine]', 'OCT3 (Homo sapiens)', 0),
  ('COc1ccc(CCN(C)CCC[C@@](C#N)(c2ccc(OC)c(OC)c2)C(C)C)cc1OC [(S)-Verapamil]', 'OCT3 (Homo sapiens)', 1),
  ('CNCC[C@@H](Oc1cccc2ccccc12)c1cccs1 [(R)-Duloxetine]', 'OCT3 (Homo sapiens)', 0),
  ('C#CCN(C)[C@H](C)Cc1ccccc1 [(R)-Deprenyl]', 'OCT3 (Homo sapiens)', 0),
  ('CCN[C@H](C)Cc1cccc(C(F)(F)F)c1 [(R)-Fenfluramine]', 'OCT3 (Homo sapiens)', 1),
  ('CC(C)C[C@@H](N(C)C)C1(c2ccc(Cl)cc2)CCC1 [(R)-Sibutramine]', 'OCT3 (Homo sapiens)', 0);

Here is the next item to consider.
Can COc1ccc([C@@H](CN(C)C)C2(O)CCCCC2)cc1 [(S)-Venlafaxine] be said to have inhibition at 20 µM at or above 40%?
0

---

target: OCT3 (Homo sapiens); construct: expressed in transfected cells; host or cells: HEK293; assay: Inhibition of model substrate uptake in OCT3-overexpressing HEK293 cells; type: cell-based; details: HEK293, 5 min, read-out: (S)-Zolmitriptan inhibition [%], OCT3; 20 μM inhibitor, 2 μM (S)-zolmitriptan, 5 min
measurement.label: inhibition at 20 µM
Please append the unit to your numeric answer.

Illustrative cases are given below, each with its answer.
INSERT INTO assay_data (compound, experimental_result) VALUES
  ('CNCC[C@@H](Oc1ccccc1C)c1ccccc1 [(R)-Tomoxetine]', '33.2%'),
  ('CCCN[C@@H]1CCc2nc(N)sc2C1 [(R)-Pramipexole]', '13%'),
  ('O=C(OC1C[N+]2(CCCOc3ccccc3)CCC1CC2)C(O)(c1cccs1)c1cccs1 [(R)-Aclidinium]', '43.3%'),
  ('CC(C)Cc1ccc([C@H](C)C(=O)O)cc1 [(S)-Ibuprofen]', '-0.8%'),
  ('Cc1cccc(C)c1OC[C@@H](C)N [(R)-Mexiletine]', '25%');

Look up inhibition at 20 µM for this compound: CN(C)CCC[C@]1(c2ccc(F)cc2)OCc2cc(C#N)ccc21 [(R)-Citalopram]
11.8%

Follow-up item: CNC[C@@H](O)c1cccc(O)c1 [(S)-Phenylephrine]
-3.9%

Follow-up item: "C=C[C@H]1C[N@@]2CC[C@H]1C[C@@H]2[C@@H](O)c1ccnc2ccc(OC)cc12"
67%

Follow-up item: COc1ccccc1OCCNC[C@@H](O)COc1cccc2[nH]c3ccccc3c12 [(R)-Carvedilol]
37.9%
